# ASSAY_SYSTEM: DCN2 (DCUND2) protein PONY domain (Homo sapiens (Human), UniProt Q6PH85)
# Sequence (Q6PH85 60-248): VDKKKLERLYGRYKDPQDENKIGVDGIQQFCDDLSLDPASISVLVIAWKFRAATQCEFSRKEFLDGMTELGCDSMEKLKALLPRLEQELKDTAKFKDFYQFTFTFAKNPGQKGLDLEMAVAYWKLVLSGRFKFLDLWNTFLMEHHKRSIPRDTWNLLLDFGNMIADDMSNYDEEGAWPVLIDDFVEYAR
# ASSAY_NAME: DCN2 TR-FRET assay, measurement of Kinact/KI
# Assay type: binding
ENDPOINT_NAME: kinact/KI

{"MOLECULE": "C=C(CN1CCOCC1)C(=O)NC[C@@H](NC(=O)[C@H](Cc1nc2ccc(C(C)C)cc2s1)NC(=O)CC)C1CCCCC1 [Compound C1, reference compound]", "ENDPOINT_NAME": "kinact/KI", "RESULT": "8.33e+06 to 1.67e+07 M⁻¹ s⁻¹"}
{"MOLECULE": "C/C=C(\\CN1CCN(C2COC2)CC1)C(=O)Nc1cccc([C@@H]2c3cnn(-c4ccccc4)c3N(CC)C(=O)[C@H]2NC(=O)c2ccn(C(F)(F)F)n2)c1", "ENDPOINT_NAME": "kinact/KI", "RESULT": "167000 to 3.33e+06 M⁻¹ s⁻¹"}
{"MOLECULE": "C=C(C(=O)NCc1cccc([C@@H]2c3cnn(-c4ccccc4)c3N(CC)C(=O)[C@H]2NC(=O)c2csc(C(F)(F)F)n2)c1)C(C)N(C)C1COC1 (stereo partly drawn)", "ENDPOINT_NAME": "kinact/KI", "RESULT": "167000 to 3.33e+06 M⁻¹ s⁻¹"}
